Biological target: human serum albumin (HSA) (Homo sapiens, UniProt P02768)
Construct: purchased Daicel Chemical Industries, purchased from Chiral Technologies Europe (France)
Sequence (P02768 25-609): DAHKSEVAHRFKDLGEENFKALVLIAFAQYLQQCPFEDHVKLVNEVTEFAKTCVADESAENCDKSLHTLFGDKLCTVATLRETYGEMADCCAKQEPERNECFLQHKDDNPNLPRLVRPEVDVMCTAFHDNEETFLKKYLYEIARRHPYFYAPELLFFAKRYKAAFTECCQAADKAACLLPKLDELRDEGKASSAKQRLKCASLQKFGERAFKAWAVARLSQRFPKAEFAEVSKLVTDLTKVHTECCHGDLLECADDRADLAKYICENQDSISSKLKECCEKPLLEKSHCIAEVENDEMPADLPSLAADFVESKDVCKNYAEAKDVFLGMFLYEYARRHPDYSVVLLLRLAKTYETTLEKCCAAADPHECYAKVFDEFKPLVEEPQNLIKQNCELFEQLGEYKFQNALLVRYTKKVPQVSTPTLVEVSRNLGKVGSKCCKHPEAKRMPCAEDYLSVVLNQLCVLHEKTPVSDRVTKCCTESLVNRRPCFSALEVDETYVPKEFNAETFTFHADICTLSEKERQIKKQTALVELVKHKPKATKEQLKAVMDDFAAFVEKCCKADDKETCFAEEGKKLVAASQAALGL
Assay type: in vitro ADME
Procedure: The Fmoc-(9-fluorenylmethoxycarbonyl-) and all other protected amino acid analogs were purchased from Bachem (Bubendorf, Switzerland) or Iris Biotech (Marktredwitz, Germany). […] Human serum albumin (HSA) binding was determined using a Chiralpak HSA 50 x 3 mm 5µm Analytical Column connected to a Chiralpak HSA 10 x 3 mm 5µm Guard Cartridge (Daicel Chemical Industries) purchased from Chiral Technologies Europe (France). […]
Square brackets hold non-standard residues; d marks the D form. Peptide text beside a SMILES is read from it. * marks the point of attachment. X1 = O=C(O)CC[C@H](NC(=O)N[C@@H](CCCCNC(=O)CCCCCCC(=O)*)C(=O)O)C(=O)O; DOTAGA = O=C(O)CN1CCN(CC(=O)O)CCN(C(CCC(=O)*)C(=O)O)CCN(CC(=O)O)CC1; dPhe(4-NH2) = Nc1ccc(C[C@@H](N)C(=O)O)cc1; dTyr(3-I) = N[C@H](Cc1ccc(O)c(I)c1)C(=O)O; Phe(4-NH2) = Nc1ccc(C[C@H](N)C(=O)O)cc1
Metric: HSA [%] (%)
Give bare numbers, in %.

Parameters: items (list). Returns: HSA [%] for each item.
1. O=C(O)CC[C@H](NC(=O)N[C@@H](CCCCNC(=O)CCCCCCC(=O)NCCCC[C@@H](NC(=O)[C@@H](Cc1ccc2ccccc2c1)NC(=O)[C@@H](Cc1ccc(O)cc1)NC(=O)CCC(C(=O)O)N1CCN(CC(=O)O)CCN(CC(=O)O)CCN(CC(=O)O)CC1)C(=O)O)C(=O)O)C(=O)O (stereo partly drawn) [[^nat/177Lu]PSMA-4, DOTAGA-y-nal-k-KuE, metal not drawn, reference compound]
2. Nc1ccc(C[C@H](NC(=O)CCC(C(=O)O)N2CCN(CC(=O)O)CCN(CC(=O)O)CCN(CC(=O)O)CC2)C(=O)N[C@H](Cc2ccc(O)c(I)c2)C(=O)N[C@H](Cc2ccccc2)C(=O)N[C@H](CCCCNC(=O)CCCCCCC(=O)NCCCC[C@H](NC(=O)N[C@@H](CCC(=O)O)C(=O)O)C(=O)O)C(=O)O)cc1 (stereo partly drawn) [[^nat/177Lu]PSMA-3, DOTAGA-(4-NH2)F-(l-y)-f-k-KuE, metal not drawn] ({DOTAGA}-[Phe(4-NH2)][dTyr(3-I)][dF][dK](X1)-OH)
3. Nc1ccc(C[C@@H](NC(=O)CCC(C(=O)O)N2CCN(CC(=O)O)CCN(CC(=O)O)CCN(CC(=O)O)CC2)C(=O)N[C@H](Cc2ccc(O)c(I)c2)C(=O)N[C@H](Cc2ccccc2)C(=O)N[C@H](CCCCNC(=O)CCCCCCC(=O)NCCCC[C@H](NC(=O)N[C@@H](CCC(=O)O)C(=O)O)C(=O)O)C(=O)O)cc1 (stereo partly drawn) [[^nat/177Lu]PSMA-2, DOTAGA-(4-NH2)f-(l-y)-f-k-KuE, metal not drawn] ({DOTAGA}-[dPhe(4-NH2)][dTyr(3-I)][dF][dK](X1)-OH)

[82.6, 91.9, 82.5]

====

Give Internalization [%] for every item shown.
Target: UniProt:Q04609
Sequence (Q04609 whole entry): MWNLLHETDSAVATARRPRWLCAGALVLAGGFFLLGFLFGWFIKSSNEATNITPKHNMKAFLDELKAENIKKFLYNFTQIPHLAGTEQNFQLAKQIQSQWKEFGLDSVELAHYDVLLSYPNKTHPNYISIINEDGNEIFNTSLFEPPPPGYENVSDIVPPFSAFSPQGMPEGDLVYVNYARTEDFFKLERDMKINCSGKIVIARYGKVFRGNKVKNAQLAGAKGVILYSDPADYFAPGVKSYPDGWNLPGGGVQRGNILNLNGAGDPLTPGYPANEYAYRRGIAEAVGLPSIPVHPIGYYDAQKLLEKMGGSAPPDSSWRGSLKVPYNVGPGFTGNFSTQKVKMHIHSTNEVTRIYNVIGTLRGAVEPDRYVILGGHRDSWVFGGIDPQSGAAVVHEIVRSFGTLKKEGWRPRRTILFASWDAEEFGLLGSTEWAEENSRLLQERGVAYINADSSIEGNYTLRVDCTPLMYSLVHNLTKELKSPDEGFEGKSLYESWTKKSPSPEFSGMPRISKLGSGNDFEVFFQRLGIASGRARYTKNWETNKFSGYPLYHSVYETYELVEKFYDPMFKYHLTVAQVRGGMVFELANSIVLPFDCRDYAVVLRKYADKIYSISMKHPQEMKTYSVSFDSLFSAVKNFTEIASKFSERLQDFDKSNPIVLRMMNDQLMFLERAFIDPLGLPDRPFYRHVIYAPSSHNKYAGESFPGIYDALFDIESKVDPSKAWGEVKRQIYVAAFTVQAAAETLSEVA
Experiment: Internalization of radiolabeled PSMA inhibitors into cells (PMPA blockade)
Type: cell-based
Design: endogenous in cells; LNCaP is named only for the xenografts
Details: 177Lu-labeled inhibitors, 37°C; reference basis of the % not stated
Method: The ^177Lu-labeled compounds, for in vitro studies, were prepared as previously described (Sosabowski, J.K. and S.J. Mather, Conjugation of DOTA-like chelating agents to peptides and radiolabeling with trivalent metallic isotopes. Nat. Protocols, 2006. 1(2): p. 972-976) with minor modifications and used without further purification. […] The reaction mixture was heated for 30 min at 95°C and the radiochemical purity was determined using Radio-TLC. […]
Numbered stars: 1 amine (or outer) side, 2 acyl side, 3 side chain; on linkers, the order of the positions; unused ones are H or OH. Square brackets hold non-standard residues; d marks the D form. Side chains are listed from the residue outwards. Peptide text beside a SMILES is read from it. * marks the point of attachment. X2 = O=C(O)CC[C@H](NC(=O)N[C@@H](CCC(=O)N[C@H](CCCN*)C(=O)O)C(=O)O)C(=O)O; DOTAGA = O=C(O)CN1CCN(CC(=O)O)CCN(C(CCC(=O)*)C(=O)O)CCN(CC(=O)O)CC1; dPhe(4-NH2) = Nc1ccc(C[C@@H](N)C(=O)O)cc1; d2Nal = N[C@H](Cc1ccc2ccccc2c1)C(=O)O; Suc = O=C(CCC(=O)[*:2])[*:1]
Answers are plain numbers, in %.

Response field Internalization [%] (UniProt:Q04609) for item O=C(O)CC[C@H](NC(=O)N[C@@H](CCCCNC(=O)CCCCCCC(=O)NCCCC[C@@H](NC(=O)[C@@H](Cc1ccccc1)NC(=O)[C@@H](Cc1ccc(O)c(I)c1)NC(=O)CCC(C(=O)O)N1CCN(CC(=O)O)CCN(CC(=O)O)CCN(CC(=O)O)CC1)C(=O)O)C(=O)O)C(=O)O (stereo partly drawn) [[^nat/177Lu]PSMA-1, DOTAGA-(l-y)-f-k-KuE, metal not drawn, reference compound] : 75.5

Could you tell me Internalization [%] for each of these compounds? They are listed below.
1. Nc1ccc(C[C@@H](NC(=O)CCC(C(=O)O)N2CCN(CC(=O)O)CCN(CC(=O)O)CCN(CC(=O)O)CC2)C(=O)N[C@H](Cc2ccc(O)cc2)C(=O)N[C@H](Cc2ccc3ccccc3c2)C(=O)N[C@H](CCCCNC(=O)CCC(=O)NCCC[C@@H](NC(=O)CC[C@H](NC(=O)N[C@@H](CCC(=O)O)C(=O)O)C(=O)O)C(=O)O)C(=O)O)cc1 (stereo partly drawn) [[^nat/177Lu]PSMA-8, metal not drawn] ({DOTAGA}-[dPhe(4-NH2)][dY][d2Nal][dK]([Suc-X2])-OH)
2. O=C(O)CC[C@H](NC(=O)N[C@@H](CCCCNC(=O)[C@@H](Cc1ccc(I)cc1)NC(=O)CCCC(=O)NCCCC[C@@H](NC(=O)[C@@H](Cc1ccc2ccccc2c1)NC(=O)[C@@H](Cc1ccc(O)cc1)NC(=O)CCC(C(=O)O)N1CCN(CC(=O)O)CCN(CC(=O)O)CCN(CC(=O)O)CC1)C(=O)O)C(=O)O)C(=O)O (stereo partly drawn) [[^nat/177Lu]PSMA-10, DOTAGA-y-nal-k(Glut-(l-f)-KuE), metal not drawn, reference compound]

1. 207.3
2. 118.6

====

biological target: human serum albumin (HSA) (Homo sapiens); construct: purchased Daicel Chemical Industries, purchased from Chiral Technologies Europe (France); type: in vitro ADME
Square brackets hold non-standard residues; d marks the D form. Peptide text beside a SMILES is read from it. * marks the point of attachment. X1 = O=C(O)CC[C@H](NC(=O)N[C@@H](CCCCNC(=O)CCCCCCC(=O)*)C(=O)O)C(=O)O; DOTAGA = O=C(O)CN1CCN(CC(=O)O)CCN(C(CCC(=O)*)C(=O)O)CCN(CC(=O)O)CC1; Phe(4-NH2) = Nc1ccc(C[C@H](N)C(=O)O)cc1; d2Nal = N[C@H](Cc1ccc2ccccc2c1)C(=O)O
Metric: HSA [%] (%)
Give bare numbers, in %.

Form field HSA [%], entry O=C(O)CC[C@H](NC(=O)N[C@@H](CCCCNC(=O)[C@@H](Cc1ccc(I)cc1)NC(=O)CCCC(=O)NCCCC[C@@H](NC(=O)[C@@H](Cc1ccc2ccccc2c1)NC(=O)[C@@H](Cc1ccc(O)cc1)NC(=O)CCC(C(=O)O)N1CCN(CC(=O)O)CCN(CC(=O)O)CCN(CC(=O)O)CC1)C(=O)O)C(=O)O)C(=O)O (stereo partly drawn) [[^nat/177Lu]PSMA-10, DOTAGA-y-nal-k(Glut-(l-f)-KuE), metal not drawn, reference compound] : 96.61

Query Nc1ccc(C[C@H](NC(=O)CCC(C(=O)O)N2CCN(CC(=O)O)CCN(CC(=O)O)CCN(CC(=O)O)CC2)C(=O)N[C@H](Cc2ccc(O)cc2)C(=O)N[C@H](Cc2ccc3ccccc3c2)C(=O)N[C@H](CCCCNC(=O)CCCCCCC(=O)NCCCC[C@H](NC(=O)N[C@@H](CCC(=O)O)C(=O)O)C(=O)O)C(=O)O)cc1 (stereo partly drawn) [[^nat/177Lu]PSMA-6, DOTAGA-(4-NH2)F-y-nal-k-KuE, metal not drawn] ({DOTAGA}-[Phe(4-NH2)][dY][d2Nal][dK](X1)-OH) yields HSA [%] of 83.17

Next:
Kindly note the recorded HSA [%] for O=C(O)CC[C@H](NC(=O)N[C@@H](CCCCNC(=O)CCCCCCC(=O)NCCCC[C@@H](NC(=O)[C@@H](Cc1ccccc1)NC(=O)[C@@H](Cc1ccc(O)c(I)c1)NC(=O)CCC(C(=O)O)N1CCN(CC(=O)O)CCN(CC(=O)O)CCN(CC(=O)O)CC1)C(=O)O)C(=O)O)C(=O)O (stereo partly drawn) [[^nat/177Lu]PSMA-1, DOTAGA-(l-y)-f-k-KuE, metal not drawn, reference compound] , which is 78.6
